// reported GI50 per item
# Tested on: NCI-H522 lung
# PROTOCOL DESCRIPTION: NCI tumour cell line growth inhibition, 48 h

Please review the following examples before continuing.
COMPOUND: Nc1cc(N)c2nc(-c3ccccc3)c(Sc3ccc(Cl)c(Cl)c3)nc2c1
TGT: NCI-H522 lung
OBSERVED: 7.67 µM
--
COMPOUND: CC(C)OP(=O)(OC(C)C)C([CH2][Sn]([CH3])([CH3])[Cl])P(=O)(OC(C)C)OC(C)C
TGT: NCI-H522 lung
OBSERVED: 6.6 µM
--
COMPOUND: Cc1cc(C(=O)NC(C)(C)C)cc(C#Cc2ccc3c4c(oc3c2)C(C)(C)c2cc(NS(C)(=O)=O)ccc2C4=O)n1
TGT: NCI-H522 lung
OBSERVED: 4.54 µM

Return GI50 measured with NCI-H522 lung given this compound: CCc1c2c(nc3ccc(OC(=O)NCc4ccc(B5OC(C)(C)C(C)(C)O5)cc4)cc13)-c1cc3c(c(=O)n1C2)COC(=O)[C@]3(O)CC 0.0167 µM

Query Cc1ccc(-c2cc3c(NC(=O)C4CC4)ncnc3o2)cc1 next > 25 µM

Query CCOc1ccc2nc(S/C(=C/C=C(C#N)C#N)c3ccc(Cl)cc3)sc2c1 next 4.43 µM

Query CN1C(=O)N(C)C2C1NN=c1s/c(=C\c3ccccc3F)c(=O)n12 (centres undefined) next 0.229 µM

Query Cn1c2c(c3ccc(-c4ccn[nH]4)cc3c1=O)C(=O)c1ccccc1-2 next 2.22 µM

Query Cc1ccc(S(=O)(=O)NC2=NCCN2C(=S)SN2CCn3c2nsc3=S)cc1 next 5.01 µM

----------
# Tested on: SF-295 CNS
# PROTOCOL DESCRIPTION: NCI tumour cell line growth inhibition, 48 h
// reported TGI per item

Please review the following examples before continuing.
COMPOUND: CCN(CC)CCNc1ccc2ncn3c4ccccc4c(=O)c1c23
TGI: 14.5 µM
--
COMPOUND: O=C(CCc1n[nH]c(=S)o1)Nc1cc(Cl)c(Cl)cc1Cl
TGI: > 100 µM
--
COMPOUND: COc1ccc(-c2nc3ccccc3c(=O)[nH]2)c(OC)c1
TGI: > 100 µM
--
COMPOUND: NC1=NS(=O)(=O)Nc2nc(-c3ccccc3)c(-c3ccccc3)nc21
TGI: > 100 µM

Look at this compound and give its reported TGI. C[C@]12Cc3cn[nH]c3C(=O)C1CC[C@@H]1C2CC[C@@]2(C)C1CC[C@]2(C)O (stereo partly specified) > 100 µM

Query Cc1nnc(N)nc1/C=C\c1ccc(N(C)C)cc1 next > 100 µM

----------
# Tested on: MDA-MB-435
The reply should name one outcome from Yes for active, No for inactive

COMPOUND: OCC#Cc1ccccc1C#CCCCCCCC#Cc1ccccc1C#CCO
TGT: MDA-MB-435
GROUP LABEL: No
//
COMPOUND: Cn1c2c(c3ccc(-c4ccn[nH]4)cc3c1=O)C(=O)c1ccccc1-2
TGT: MDA-MB-435
GROUP LABEL: No
//
COMPOUND: CCOc1ccc2nc(S/C(=C/C=C(C#N)C#N)c3ccc(Cl)cc3)sc2c1
TGT: MDA-MB-435
GROUP LABEL: No
//
COMPOUND: Cc1cc(C)c(C#N)c(SCC(=O)c2sc3c(C#N)c(C)cc(C)[n+]3c2[O-])n1
TGT: MDA-MB-435
GROUP LABEL: Yes
//
COMPOUND: CS(=O)(=O)Nc1ccc(Nc2c3ccccc3nc3cc(N)ccc23)cc1
TGT: MDA-MB-435
GROUP LABEL: No
//
COMPOUND: CCOC(=O)c1ccc2[nH]c(O)c(C(=Nc3ccc(N(C)C(=O)CN4CCN(C)CC4)cc3)c3ccccc3)c2c1
TGT: MDA-MB-435
GROUP LABEL: No
//
COMPOUND: COc1ccc2c(c1)OCC1c3cc(O)ccc3OC21 (stereo not given)
TGT: MDA-MB-435
GROUP LABEL: No
//
COMPOUND: Cc1ccc(-c2cc3c(NC(=O)C4CC4)ncnc3o2)cc1
TGT: MDA-MB-435
GROUP LABEL: No

Entry CC(C)CCC[C@@H](C)[C@H]1CCC2C3=CCn4c(=O)ccc(=O)n4C3CC[C@@]21C (stereo not given in full) : call = ? No

Query O=C(COc1cccc(/C=C2/Oc3ccccc3C2=O)c1)Nc1nccs1 next No
